- measuredOn: human ether-à-go-go-related gene (hERG) potassium channel (human)
- Sequence (Q12809 whole entry, looked up): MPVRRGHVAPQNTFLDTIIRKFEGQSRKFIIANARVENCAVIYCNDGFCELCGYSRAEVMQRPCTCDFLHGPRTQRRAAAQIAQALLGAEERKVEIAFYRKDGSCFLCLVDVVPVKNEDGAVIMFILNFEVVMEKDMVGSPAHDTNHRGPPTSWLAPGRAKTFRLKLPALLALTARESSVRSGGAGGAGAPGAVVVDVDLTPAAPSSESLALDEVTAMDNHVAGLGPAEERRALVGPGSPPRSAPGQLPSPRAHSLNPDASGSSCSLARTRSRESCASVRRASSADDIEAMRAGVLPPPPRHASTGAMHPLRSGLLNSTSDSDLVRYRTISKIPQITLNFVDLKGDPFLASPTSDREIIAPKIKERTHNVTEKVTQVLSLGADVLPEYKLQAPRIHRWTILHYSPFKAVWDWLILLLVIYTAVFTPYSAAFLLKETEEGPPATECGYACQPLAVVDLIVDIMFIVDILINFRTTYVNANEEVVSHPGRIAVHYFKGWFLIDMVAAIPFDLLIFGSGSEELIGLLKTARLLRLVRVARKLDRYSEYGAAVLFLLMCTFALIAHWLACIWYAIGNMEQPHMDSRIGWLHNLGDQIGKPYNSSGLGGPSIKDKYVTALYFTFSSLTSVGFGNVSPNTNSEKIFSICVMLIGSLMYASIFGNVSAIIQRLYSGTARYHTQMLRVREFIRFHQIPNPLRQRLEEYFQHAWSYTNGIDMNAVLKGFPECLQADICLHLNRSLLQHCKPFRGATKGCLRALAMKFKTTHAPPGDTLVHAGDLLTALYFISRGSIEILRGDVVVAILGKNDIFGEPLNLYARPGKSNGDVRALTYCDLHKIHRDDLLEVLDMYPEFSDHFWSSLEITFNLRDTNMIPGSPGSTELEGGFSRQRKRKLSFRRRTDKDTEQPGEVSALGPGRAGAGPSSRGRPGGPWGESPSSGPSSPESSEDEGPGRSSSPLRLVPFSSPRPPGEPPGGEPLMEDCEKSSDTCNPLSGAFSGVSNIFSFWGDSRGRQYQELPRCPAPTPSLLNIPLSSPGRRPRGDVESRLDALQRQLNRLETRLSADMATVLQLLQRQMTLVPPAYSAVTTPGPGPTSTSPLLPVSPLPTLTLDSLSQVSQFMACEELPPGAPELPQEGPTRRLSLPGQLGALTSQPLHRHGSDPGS
- assayNotes: primary screen, population patch clamp on CHO cells stably expressing hERG; higher = less effect of the substance;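 note: peak tail current of the secondary pulse compared with the same well before compound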
Screen size: about 310,000 compounds; about 14,000 (4.5%) showed an effect of 50% or more. The effect is printed as a negative number. For the sample, strong results were picked, then their nearest neighbours and some compounds at random.
experimentalEndpoint: hERG current change (%, negative = inhibition) at 10uM (%)
One number for each entry, in %.

Below are worked cases with known answers.
compound	measuredOn	valueObserved
CCCCCCn1cc(C(=O)OCC)c(=O)c2cc(F)c(F)cc21	human ether-à-go-go-related gene (hERG) potassium channel (human)	-52.6
COc1ccccc1C(=O)NCCSCc1ccccc1Cl	human ether-à-go-go-related gene (hERG) potassium channel (human)	-15.4
COC(=O)c1cccc(NC(=O)c2ccc(OC)c(Cl)c2)c1	human ether-à-go-go-related gene (hERG) potassium channel (human)	-65.3
COCCCNC(=S)Nc1ccc(C)cc1[N+](=O)[O-]	human ether-à-go-go-related gene (hERG) potassium channel (human)	1.51
COc1cccc(C(=O)NCCSCc2ccccc2Cl)c1	human ether-à-go-go-related gene (hERG) potassium channel (human)	-53.2
COc1cccc(C(=O)NCCSCc2c(F)cccc2Cl)c1	human ether-à-go-go-related gene (hERG) potassium channel (human)	-29
O=C(O)c1cnc(-c2ccccc2)nc1Sc1cccc(Cl)c1	human ether-à-go-go-related gene (hERG) potassium channel (human)	26.7
CC(C)(C)C(=O)c1cn(Cc2ccccc2)c2ccccc12	human ether-à-go-go-related gene (hERG) potassium channel (human)	-4.12
COCCCNC(=O)Cn1ccc(N)nc1=O	human ether-à-go-go-related gene (hERG) potassium channel (human)	11.4
COc1ccc(NC(=O)c2cccc(F)c2)cc1Cl	human ether-à-go-go-related gene (hERG) potassium channel (human)	1.72

Okay, now this compound:
### Prompt Read off the recorded hERG current change (%, negative = inhibition) at 10uM for CC(CCc1ccccc1)NCC(O)c1ccc(O)c(C(N)=O)c1.Cl (centres unmarked)
### Response -30.6
